run_description: yeast display, Sf9 membrane polyspecificity reagent, FACS + sequencing; frameworks hold sequencing errors
readout_label: polyreactivity (PSR sort gate)

input_sequence	readout_label	endpoint_result
QVQLVESGGGLLQAGGSLRLSCAASGRIFGSYAMGWYRQAPGKERELVAGIRSVGSTNYADSVKGRFTISRDNAKNTVYLQMNSLKPEDTAVYYCAARLWHLSYAGQGGDYWGQGTQVTVSS	polyreactivity (PSR sort gate)	low polyreactivity
QVQLVESGGGLLQAGGSLRLSCAASGRTFYQYAMGWYRKAPGKDRELVAAITTSGRSTYYADSVKGRITISRDNAKNTVYLQMNRLKPEDTAVYYCNKDLSSTIFDYWGQGTQVTVSS	polyreactivity (PSR sort gate)	low polyreactivity
